- Test system: OVCAR-4 ovarian
- protocol summary: NCI tumour cell line growth inhibition, 48 h; in the data active = GI50 below about 0.43 µM; inactive = the rest
One label from this list, please: yes = active, no = inactive

Study these solved cases before continuing.
{"columns": ["molecule", "group label"],
 "data": [
  ["O=[N+]([O-])c1ccc(Nc2ccccc2-c2ccccc2)c2nonc12", "no"],
  ["NS(=O)(=O)c1ccc(NC(=O)c2ccc(NC3=C(Cl)C(=O)N(Cc4ccccc4)C3=O)cc2)cc1", "no"],
  ["CO[C@H](C(=O)[C@@H](O)[C@@H](C)O)[C@@H]1Cc2cc3cc(O[C@H]4C[C@@H](O[C@H]5C[C@@H](O)[C@H](O)C(C)O5)[C@H](O)C(C)O4)c(C)c(O)c3c(O)c2C(=O)[C@H]1O[C@H]1C[C@@H](O[C@H]2C[C@@H](O[C@H]3C[C@@H](OC)[C@H](O)C(C)O3)[C@@H](O)C(C)O2)C(O)(O)C(C)O1 (some centres not stated)", "yes"],
  ["O=C(c1ccccc1)c1c(NCC(O)CN2CCCC2)n(Cc2ccccc2)c(=O)n(Cc2ccccc2)c1=O (configuration not stated)", "no"],
  ["C=CC(=O)Nc1ccc(Nc2nccc(-c3ccc(N4CCCC4)c(C#N)c3)n2)cc1", "no"]
]}

Identify the outcome logged in this assay for the molecule shown: CC(C)(C)OC(=O)NCCNC1=CC(=O)c2nc3ccccc3c3ccnc1c23
no

Now the same for O=S(=O)(Nc1ncccn1)c1ccc(N=Nc2ccc(O)c3ncccc23)cc1
no

* * *

- Tested on: DU-145 prostate
- protocol summary: NCI tumour cell line growth inhibition, 48 h; in the data active means GI50 below about 0.43 µM; inactive means the rest
Response enum: label 1 (active), label 0 (inactive)

Known results for molecules:
{"columns": ["molecule", "group label"],
 "data": [
  ["C=C1C(=O)O[C@H]2[C@H]1CC/C(CNC(=O)/C=C/c1ccc(Br)cc1)=C\\CC[C@@]1(C)O[C@@H]21", "label 0"],
  ["O=C(c1ccccc1)c1c(NCC(O)CN2CCCC2)n(Cc2ccccc2)c(=O)n(Cc2ccccc2)c1=O (stereo not given)", "label 0"],
  ["O=P([O-])(O)OP(=O)([O-])O.[NH-][C@H]1CCCC[C@@H]1[NH-].[OH-].[OH-].[Pt+4]", "label 0"],
  ["COC1=CC(c2ccc[nH]2)=N/C1=C\\c1[nH]c(C)c(C(=O)OCc2ccccc2)c1C", "label 1"]
]}

Now for another entry.
Test call for this molecule, please: O=[N+]([O-])c1ccc(Nc2ccccc2-c2ccccc2)c2nonc12
label 0

* * *

- Test system: M14 melanoma
- protocol summary: NCI tumour cell line growth inhibition, 48 h
Some compounds, each annotated with its measured TGI.
Report the figure in µM without appending any unit label.

Some solved cases for reference:
{"columns": ["smiles code", "observed result"],
 "data": [
  ["O=C(/C=C/c1ccc(B(O)O)cc1)/C=C/c1ccc(B(O)O)cc1", 5.9],
  ["COc1cc2c(cc1OCCCN1CCN(CCCOc3cc4c(cc3OC)C(=O)N3CCC[C@H]3C=N4)CC1)C=CC(C)(C)O2", 2.62]
]}

Now for the compound whose TGI we want.
Consider the compound shown here: C/C=C/[C@@]1(OC(=O)c2ccccc2)C[C@@H]2CCCC[C@@H]21 What is its recorded TGI?
32.3

* * *

- Tested on: HT29 colon
- protocol summary: NCI tumour cell line growth inhibition, 48 h
Overview of recorded TGI for various molecules
Record the value in µM, omitting the unit from your answer.

Worked cases, TGI given:
{"columns": ["molecule", "target or system", "TGI [µM]"],
 "data": [
  ["C=CCNC(=S)Nc1sc2c(c1C(=O)OCC)CC(C)CC2 (stereo not given)", "HT29 colon", 47.1],
  ["CC1=CCC[C@@]2(C)C(CC[C@@H]2C(C)/C=C/C(C)C)c2ccc(cc2C(=O)O)C[C@@H](O)CC1 (stereo not given in full)", "HT29 colon", 17.6],
  ["O=[N+]([O-])c1ccc(Nc2ccccc2-c2ccccc2)c2nonc12", "HT29 colon", 47.2],
  ["COc1cc(/C=C/C(=O)OCC23CC[C@@]4(C(=O)O)CCC(C)[C@H](C)C4C2=CCC2[C@@]4(C)CC[C@H](O)C(C)(C)C4CC[C@]23C)ccc1O (stereo not given in full)", "HT29 colon", 42]
]}

# next molecule below
Could you tell me which TGI is on file for CCOc1ccc2nc(NC(=O)C(=O)C(C(=O)c3ccccc3-c3ccccc3)C3OC(=O)c4ccccc43)sc2c1 (stereo not given) ?
43.6

Data provenance is PubChem BioAssay (NCI).
